Ref: the supplement of paper PMC8728848

molecular target: Neu5Ac(a2-6)GlcNAc(b1-4)GlcNAc(b1-4)GlcNAc; assay: glycan array binding signal (z-score within array); higher = stronger binding; conditions: glycan notation: IUPAC condensed, linker removed
The full list was thinned out, with the strongest signals kept by preference.
Form field: glycan array binding signal (z-score) (one value per entry).
# print the numeric value only

Sample records with glycan array binding signal (z-score):
>>> meas_value("Gal 8 (Mus musculus), Q9JL15 (protein) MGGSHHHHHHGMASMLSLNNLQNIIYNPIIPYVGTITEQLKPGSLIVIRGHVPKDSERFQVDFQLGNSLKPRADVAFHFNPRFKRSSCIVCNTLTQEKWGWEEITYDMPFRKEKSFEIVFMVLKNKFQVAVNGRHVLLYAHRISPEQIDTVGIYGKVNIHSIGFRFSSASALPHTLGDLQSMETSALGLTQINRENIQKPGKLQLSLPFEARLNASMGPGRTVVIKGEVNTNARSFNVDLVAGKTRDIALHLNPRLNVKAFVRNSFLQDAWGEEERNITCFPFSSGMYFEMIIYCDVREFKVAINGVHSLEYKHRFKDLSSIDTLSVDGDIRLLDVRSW")
-0.545
>>> meas_value("Banana lectin (Musa acuminata) (protein) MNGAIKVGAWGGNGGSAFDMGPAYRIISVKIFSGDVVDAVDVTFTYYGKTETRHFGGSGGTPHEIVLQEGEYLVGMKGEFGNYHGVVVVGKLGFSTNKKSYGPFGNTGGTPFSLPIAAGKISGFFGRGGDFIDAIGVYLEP")
-0.194
>>> meas_value("Threefoil (Haloarcula marismortui) (protein) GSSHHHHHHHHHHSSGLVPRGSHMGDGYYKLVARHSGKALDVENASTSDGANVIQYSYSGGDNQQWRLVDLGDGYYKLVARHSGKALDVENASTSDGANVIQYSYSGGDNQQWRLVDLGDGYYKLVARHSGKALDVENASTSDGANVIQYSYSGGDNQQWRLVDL")
-0.141

Look up glycan array binding signal (z-score) for this binder: GSL-I-B4 (Griffonia simplicifolia) (protein) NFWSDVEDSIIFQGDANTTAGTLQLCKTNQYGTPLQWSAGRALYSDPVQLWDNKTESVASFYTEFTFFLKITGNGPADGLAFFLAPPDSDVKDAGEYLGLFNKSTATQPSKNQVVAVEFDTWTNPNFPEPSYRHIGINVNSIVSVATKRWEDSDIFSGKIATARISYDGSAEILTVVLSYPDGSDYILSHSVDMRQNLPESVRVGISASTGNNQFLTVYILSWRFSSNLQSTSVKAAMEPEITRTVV -0.169

Report glycan array binding signal (z-score) for AT1G15820(NC) (Arabidopsis thaliana) (protein) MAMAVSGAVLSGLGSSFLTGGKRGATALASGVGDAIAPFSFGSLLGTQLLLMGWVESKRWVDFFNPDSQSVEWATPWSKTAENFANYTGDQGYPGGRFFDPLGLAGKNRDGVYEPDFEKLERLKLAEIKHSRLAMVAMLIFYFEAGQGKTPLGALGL please. -0.481

I am curious: what glycan array binding signal (z-score) value has been reported for CREG (Mus musculus), O88668 (protein) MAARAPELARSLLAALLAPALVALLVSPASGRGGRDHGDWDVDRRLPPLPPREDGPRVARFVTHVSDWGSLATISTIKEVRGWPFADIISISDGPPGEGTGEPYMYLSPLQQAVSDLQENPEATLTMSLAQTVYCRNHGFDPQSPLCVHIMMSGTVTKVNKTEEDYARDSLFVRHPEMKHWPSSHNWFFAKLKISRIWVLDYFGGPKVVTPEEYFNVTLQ ? 0.386
